- Test system: MDA-MB-435
quantity measured: GI50

                            smiles_notation  data_value
0  CCCCCCCCCCCCCCCC(=O)Nc1ccn([C@@H]2O[C@H](CO)[C@@H](O)[C@@H]2C#N)c(=O)n1     39.5 µM
1  O=c1cc(/C=C/c2ccc(O)c(O)c2)cc(/C=C/c2ccc(O)c(O)c2)o1     3.15 µM
2            O=C(NNC(=O)c1ccccc1S)c1ccccc1S     33.2 µM
3  COc1ccc(/C=C(/C(=O)N2CCCCC2)c2cc(OC)c(OC)c(OC)c2)cc1    0.257 µM
4  Cc1cccc(-n2cnc3cc(C(=O)N4CCCCC4)ccc32)c1    > 100 µM
5  Cn1cc(C2=C(n3ccc4ccccc43)C(=O)NC2=O)c2ccccc21     > 25 µM
6  COc1ccc(/C=C/C(=O)Nc2cc(/C=C\c3cc(OC)c(OC)c(OC)c3)cc(OC)c2OC)cc1OC     1.29 µM
7  CCCCCC[n+]1noc(N)c1-c1ccc(-c2c(N)on[n+]2CCCCCC)cc1  1.76 µg/mL
8  CC(=O)/C(=C\c1c(-c2ccccc2)[nH]c2ccccc12)S(C)(=O)=O    0.313 µM

====

- Tested on: SK-MEL-5 melanoma
- procedure details: NCI tumour cell line growth inhibition, 48 h; in the data active = GI50 below about 0.43 µM; inactive = the rest
Labels: 1 (yes) (active), 0 (no) (inactive)

>>> print(df.to_string())
                            smiles_notation        system_name  label_class
0  CCOc1ccccc1C(=O)/C=C/c1cc2ccccc2[nH]c1=O  SK-MEL-5 melanoma      1 (yes)
1            O=C(NNC(=O)c1ccccc1S)c1ccccc1S  SK-MEL-5 melanoma       0 (no)
2  Nc1c(C(=O)N/N=C/c2ccco2)cnn1-c1ccnc2c(C(F)(F)F)cccc12  SK-MEL-5 melanoma       0 (no)
3  CC[N-]c1nnnn1CC.[Au+].c1ccc([PH+](c2ccccc2)c2ccccc2)cc1  SK-MEL-5 melanoma       0 (no)
4  C#CCNCCCN1C(=O)c2ccc3c4c(ccc(c24)C1=O)C(=O)N(CCCNCC#C)C3=O  SK-MEL-5 melanoma      1 (yes)
5  O=S(=O)(Nc1cc(F)cc(F)c1)c1ccc(-c2cnc(C3CC3)o2)cc1  SK-MEL-5 melanoma       0 (no)
6  CCNC(=O)N1CCc2c(Cl)c3c(c(OC)c2[C@@H]1[C@H]1OCc2c1ccc(OC)c2OC)OCCO3  SK-MEL-5 melanoma       0 (no)
7  O=c1cc(/C=C/c2ccc(O)c(O)c2)cc(/C=C/c2ccc(O)c(O)c2)o1  SK-MEL-5 melanoma       0 (no)
8               O=Cc1cn(Cc2ccccc2)c2ccccc12  SK-MEL-5 melanoma       0 (no)
9    COc1ccc2nc3c(n2c1)C(=O)C(=O)c1ccccc1-3  SK-MEL-5 melanoma       0 (no)

====

Listed compounds paired with reported TGI
- Test system: K-562 leukemia
- procedure details: NCI tumour cell line growth inhibition, 48 h
quantity measured: TGI

In [3]: df
Out[3]:
                                    compound     system_name  data_value
 0  CC1(CO)OC(n2cnc3c(N)ncnc32)C(O)C1O (stereo not drawn)  K-562 leukemia    > 100 µM
 1      COc1ccc(CNc2nc3ccccc3nc2C(=O)O)cc1OC  K-562 leukemia    > 100 µM
 2  Oc1ccc2c(c1)OCC1(O)Cc3cc(O)c(O)cc3C21 (stereo not drawn)  K-562 leukemia   > 82.6 µM
 3  Cn1cc(C2=C(n3ccc4ccccc43)C(=O)NC2=O)c2ccccc21  K-562 leukemia     > 25 µM
 4                  CN(C)N=Nc1cn[nH]c1C(N)=O  K-562 leukemia    > 100 µM
 5  COc1ccc(/C=C(/C(=O)N2CCCCC2)c2cc(OC)c(OC)c(OC)c2)cc1  K-562 leukemia    > 100 µM
 6  COC(=O)[C@@H]1c2[nH]c3ccccc3c2C[C@@H]2c3ccccc3NC(=O)[C@@H]21  K-562 leukemia    > 100 µM
 7         O=C(CCC1CCCCC1)NCc1ccc(C(=O)O)cc1  K-562 leukemia    > 100 µM
 8  CN1C(=O)N(C)C2(O)c3ccccc3C(=O)C12O (stereo not drawn)  K-562 leukemia    > 100 µM
 9  N#CC(C(=O)C(N)=O)c1ccccc1Cl (stereo not drawn)  K-562 leukemia    > 100 µM
10        CN(C)C(=S)/N=c1\ssc(=Nc2ccccc2)n1C  K-562 leukemia    > 100 µM
11  COc1cc2c3c(n(CCCN)c(=O)c2cc1OC)-c1ccc(N(C)C)cc1C3=O  K-562 leukemia     17.4 µM
12  CCSC1=CC(Cc2ccc(OC)cc2)N(C(=O)OC)C1 (stereo not drawn)  K-562 leukemia    > 100 µM
13   CC(=O)OCc1cc(=O)n2c([nH]c3ccccc32)c1C#N  K-562 leukemia    > 100 µM
14     [N-]=[N+]=Nc1ncnc2c1sc(=S)n2-c1ccccc1  K-562 leukemia    > 100 µM
15  COc1ccc(/C=C2\C(=O)NC(=O)c3ccccc32)cc1OC  K-562 leukemia   > 70.9 µM
16  COC(=O)N[C@H]1C=C[C@@H]2/C=C(C)/C=C/[C@@H](C)[C@H]([C@H](C)[C@H](O)[C@@H](C)NC(C)=O)OC(=O)/C=C/C=C(C)\C=C\[C@]2(C)C1  K-562 leukemia   > 45.3 µM
17            c1ccc(P2c3ccccc3Nc3ccccc32)cc1  K-562 leukemia    > 100 µM
18  O=C1NC(N/N=C\C(O)C(O)C(O)C(O)CO)=N/C1=C\c1ccc(Cl)cc1 (stereo not drawn)  K-562 leukemia    > 100 µM
19  Cc1ccc(S(=O)(=O)NC2CCCCO2)cc1 (stereo not drawn)  K-562 leukemia    > 100 µM
20   [N-]=[N+]=Nc1cccc(-c2n[nH]c(Cl)cc2=O)c1  K-562 leukemia    > 100 µM
21  CCCCc1ccc(Nc2nc3c(ncn3COCCBr)c(=O)[nH]2)cc1  K-562 leukemia    > 100 µM
22  C#CCNCCCN1C(=O)c2ccc3c4c(ccc(c24)C1=O)C(=O)N(CCCNCC#C)C3=O  K-562 leukemia     1.63 µM
